molecular target: HLA-A*02:06; experiment: IEDB peptide-MHC binding, purified MHC/competitive/radioactivity; filed as Kd, often an IC50 or EC50 that approximates it; bounds were set here for any values at or beyond the usual limits of such assays; settings: source organism: Vaccinia virus WR
pKd: −log10 of the molar value.
The threshold is inclusive: pKd of exactly 6 counts as condition met; values below receive condition not met.

- polymer sequence: "VADLSARNKL"
  target of assay: "HLA-A*02:06"
  group: "condition not met"
- polymer sequence: "WIKDIMTST"
  target of assay: "HLA-A*02:06"
  group: "condition met"
- polymer sequence: "TISGNIYSAL"
  target of assay: "HLA-A*02:06"
  group: "condition not met"
- polymer sequence: "NVISKIYTLI"
  target of assay: "HLA-A*02:06"
  group: "condition met"
- polymer sequence: "EISSNDNAKI"
  target of assay: "HLA-A*02:06"
  group: "condition met"
- polymer sequence: "IVCIVAAVII"
  target of assay: "HLA-A*02:06"
  group: "condition not met"
- polymer sequence: "KLPTWLGAA"
  target of assay: "HLA-A*02:06"
  group: "condition met"
- polymer sequence: "RAKRKPAMST"
  target of assay: "HLA-A*02:06"
  group: "condition not met"
- polymer sequence: "YVIRHVDGKI"
  target of assay: "HLA-A*02:06"
  group: "condition met"
- polymer sequence: "GMYYPTNDI"
  target of assay: "HLA-A*02:06"
  group: "condition not met"
- polymer sequence: "ITDDSDDYEL"
  target of assay: "HLA-A*02:06"
  group: "condition met"
- polymer sequence: "MAAAKTPVIV"
  target of assay: "HLA-A*02:06"
  group: "condition not met"
- polymer sequence: "PVDLVKSSFV"
  target of assay: "HLA-A*02:06"
  group: "condition not met"
- polymer sequence: "NIGCAVNTPV"
  target of assay: "HLA-A*02:06"
  group: "condition met"
- polymer sequence: "GLLDSIKMI"
  target of assay: "HLA-A*02:06"
  group: "condition met"
- polymer sequence: "FLLPLTSLVI"
  target of assay: "HLA-A*02:06"
  group: "condition met"
- polymer sequence: "YLRGHTESI"
  target of assay: "HLA-A*02:06"
  group: "condition met"
- polymer sequence: "FLRPVLKAM"
  target of assay: "HLA-A*02:06"
  group: "condition not met"
- polymer sequence: "STFNMWREI"
  target of assay: "HLA-A*02:06"
  group: "condition met"
- polymer sequence: "ILATLNTLIT"
  target of assay: "HLA-A*02:06"
  group: "condition met"
- polymer sequence: "FTFGDTALYV"
  target of assay: "HLA-A*02:06"
  group: "condition met"
- polymer sequence: "ITFLRPVLKA"
  target of assay: "HLA-A*02:06"
  group: "condition not met"
- polymer sequence: "IVQLPKRGV"
  target of assay: "HLA-A*02:06"
  group: "condition not met"
